# tested_on: human orexin-1 receptor (Homo sapiens (Human))
# Sequence (O43613 whole entry): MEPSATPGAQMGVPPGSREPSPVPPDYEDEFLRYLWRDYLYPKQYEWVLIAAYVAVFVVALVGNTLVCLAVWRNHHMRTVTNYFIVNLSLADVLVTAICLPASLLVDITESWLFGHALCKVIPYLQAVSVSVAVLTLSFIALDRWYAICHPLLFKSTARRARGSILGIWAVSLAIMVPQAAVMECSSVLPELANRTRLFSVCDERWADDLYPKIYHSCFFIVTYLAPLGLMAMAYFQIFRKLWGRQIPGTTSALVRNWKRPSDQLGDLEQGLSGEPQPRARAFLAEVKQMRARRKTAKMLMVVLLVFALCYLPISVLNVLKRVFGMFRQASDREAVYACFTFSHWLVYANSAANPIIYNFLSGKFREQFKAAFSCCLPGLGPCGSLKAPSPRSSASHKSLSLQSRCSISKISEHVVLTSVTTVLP
# measurement_protocol: In vitro assay: intracellular calcium measurements (FLIPR), antagonistic activity
# Assay type: cell-based
# condition_context: CHO cells expressing human orexin-1 receptor, orexin-A agonist, geometric mean, read-out: IC50 Ox1
property: IC50 (nM)

Worked examples follow.
smiles_structure: CSc1ccc2[nH]c([C@@H]3CCCN3C(=O)c3nc(C)ccc3-n3cccn3)nc2c1
tested_on: human orexin-1 receptor (Homo sapiens (Human))
observed: 2680
--
smiles_structure: C=C1C[C@@H](c2nc3cccc(Cl)c3[nH]2)N(C(=O)c2cc(C)ccc2-n2nccn2)C1
tested_on: human orexin-1 receptor (Homo sapiens (Human))
observed: 389
--
smiles_structure: Cc1cc(C(=O)N2CCC[C@@]2(C)c2nc3cc(OC(F)(F)F)ccc3[nH]2)c(-n2nccn2)cc1C
tested_on: human orexin-1 receptor (Homo sapiens (Human))
observed: 5
--
smiles_structure: COc1ccccc1-c1sc(C)nc1C(=O)N1CC[C@H](C)[C@H]1c1nc2c(Cl)cccc2[nH]1
tested_on: human orexin-1 receptor (Homo sapiens (Human))
observed: 35
--
smiles_structure: C=C1C[C@@H](c2nc3c(Br)cccc3[nH]2)N(C(=O)c2nc(C)sc2-c2ccc(C)c(C)c2)C1
tested_on: human orexin-1 receptor (Homo sapiens (Human))
observed: 5

(I) C=C1C[C@@H](c2nc3cccc(C)c3[nH]2)N(C(=O)c2nc(C)sc2-c2ccc(F)c(Br)c2)C1
(II) COc1ccc2nc([C@@H]3CCCN3C(=O)c3cnc(C)nc3-c3ccccc3)[nH]c2c1
Field: entry with larger IC50 (options I / II ). Please respond with the label that marks your chosen entry.
II
(II: 347 nM, I: 15 nM)

Each recorded value in this set is attributed to patent US9732075B2.
